Reported values of cytotoxicity at 10 µM for individual entries
# ASSAY_REMARKS: Toxicity liver stage against HepG2, at 10uM
# Assay type: cell-based
# Parameters: test concentration 10 uM, cell line HepG2-A16-CD81EGFP
# EXPERIMENTAL_SETUP: human, HepG2-A16-CD81EGFP cells; read-out: INHIBITION
PARAMETER_MEASURED: cytotoxicity at 10 µM (%)

compound=CO[C@@H]1CCN(C(=O)c2cc(C)on2)C[C@@H]1Cc1ccccc1 test_result=1.11
compound="COc1ccc(C2CCN(C(=O)c3ncccc3OC(C)C)C2)cc1 (centres undefined)" test_result=-6.45
compound=COCCNC(=O)[C@@]12CCO[C@@H]1CCN(Cc1ccncc1)C2 test_result=-77.3
compound=CC(=O)NC1CCN(C(=O)Nc2cccc(SC(F)F)c2)CC1 test_result=-0.598
compound=CN(Cc1ccoc1)c1ccc(-c2nccn2C)nn1 test_result=-5.12
compound=CSCC[C@H](NC(=O)Cn1ccc2c(Cl)cccc21)C(=O)O test_result=4.18
compound=COc1cccc(-c2cccc(N3CCC(N[C@@H]4CCOC4)CC3)c2)c1 test_result=-12.7
compound=COc1ncccc1CNCc1c(C)nn(C)c1N1CCOCC1 test_result=-11.1
compound=CC(=O)N1CCC(c2ccnc(Nc3cncnc3)n2)CC1 test_result=-33.2
compound=COc1cccc(CNCCNS(=O)(=O)Cc2ccccc2)c1 test_result=13.4
compound=CC(C)N1CCCN(c2nc(-c3cccnc3)nc3c2cnn3C)CC1 test_result=28.2
compound="Cc1cc(C)c2nc(CNC3CCCNC3=O)cc(O)c2c1 (centres undefined)" test_result=5.84
compound="N#Cc1ccc(OCC(O)CN2CCc3cncnc3C2)cc1 (centres undefined)" test_result=-8.61
compound=Cn1cc(CN2CCO[C@@H]3CN(C4CCCC4)C[C@@H]3C2)cn1 test_result=-4.8
compound=Cc1ccc(F)c(S(=O)(=O)NCCc2nnc[nH]2)c1 test_result=3.16
compound=O=C(NCCN1CCCCC1)c1ccn(-c2ccccc2)n1 test_result=7.53
compound=CCOc1ccc(N(CC(=O)c2ccccc2)C2=NCCCCC2)cc1 test_result=-2.02
compound=CC(C)c1cc(C(=O)N[C@H]2CN(C3CCOCC3)C[C@@H]2C2CC2)no1 test_result=6.31
compound="Cc1nc(-c2ccccc2C)n(CC(=O)NC(C)C2CC2)n1 (centres undefined)" test_result=20.8

----------
# ASSAY_REMARKS: Toxicity liver stage against HepG2, at 10uM
# Format: cell-based
# Parameters: test concentration 10 uM, cell line HepG2-A16-CD81EGFP
# EXPERIMENTAL_SETUP: human, HepG2-A16-CD81EGFP cells; read-out: INHIBITION
Reported values of cytotoxicity at 10 µM for individual entries
PARAMETER_MEASURED: cytotoxicity at 10 µM (%)

molecule="CCN(CC)c1ccc(C(=O)N2CCCC2Cn2cc(C)cn2)cn1 (configuration not stated)" parameter_measured="cytotoxicity at 10 µM" test_result=-17.2
molecule=O=C(c1cn(-c2ccccc2C(F)(F)F)nn1)N1CCSCC1 parameter_measured="cytotoxicity at 10 µM" test_result=-0.111
molecule=Cn1cccc1CN1CCC2(CC1)CCN(C(=O)c1cnccn1)CC2 parameter_measured="cytotoxicity at 10 µM" test_result=-147
molecule=Cc1nccn1CCCC(=O)N1CCC(Nc2cccnn2)CC1 parameter_measured="cytotoxicity at 10 µM" test_result=-17.3
molecule=Cn1cnc2cc(C(=O)N3CCN(CCO)[C@@H]4CS(=O)(=O)C[C@@H]43)ccc21 parameter_measured="cytotoxicity at 10 µM" test_result=2.74
molecule="O=C(c1ccc(CN2CCCC2)cc1)N1CCCC(n2cccn2)C1 (configuration not stated)" parameter_measured="cytotoxicity at 10 µM" test_result=-1.88
molecule=Cn1cc(CN2CCC[C@]3(C[C@@H](Oc4ncccc4F)CO3)C2)cn1 parameter_measured="cytotoxicity at 10 µM" test_result=9.66
molecule=O=C(c1ccncc1)N1CCc2ncnc(C3CC3)c2CC1 parameter_measured="cytotoxicity at 10 µM" test_result=-75.6
molecule="CCn1ncc2c1C(COCC1CC1)N(C(=O)c1ccncn1)CC2 (configuration not stated)" parameter_measured="cytotoxicity at 10 µM" test_result=-147
molecule=CN(CCCc1cc(-c2ccc(F)cc2)n(C)n1)CC(N)=O parameter_measured="cytotoxicity at 10 µM" test_result=-8.71
molecule=CN(C)c1nc(-c2ccncc2)nc2c1CCN(C(=O)[C@H](N)CO)C2 parameter_measured="cytotoxicity at 10 µM" test_result=8.01
molecule=Cc1cc(C(=O)NCC2(N(C)C)CCCC2)c(C)n1-c1cccnc1 parameter_measured="cytotoxicity at 10 µM" test_result=-8.41
